Starred links: 1 amine or outer side, 2 acyl side, 3 side chain; linkers in the order of their positions; H or OH if unused. Non-standard residues stand in square brackets, D forms with d. Residues, ends and D or L forms follow the SMILES beside them. X9 = CCC(=O)c1cccc(N([C@@H](Cc2ccc(F)cc2)C(=O)[*:2])[*:1])c1; Phe(4-guanidino) = N=C(N)Nc1ccc(C[C@H](N)C(=O)O)cc1
parameter: IC50 (nM)
Numeric only. Scale: nM

Which IC50 is reported with Proteinase-activated receptor 1 (Homo sapiens) for this entry: `CC(=O)N(C(=O)/C=C/c1ccccc1)[C@@H](Cc1ccc(F)cc1)C(=O)N[C@@H](Cc1ccc(NC(=N)N)cc1)C(=O)N[C@@H](CC(C)C)C(=O)N[C@@H](CCCN)C(N)=O` ?
17

Missing value: IC50, Proteinase-activated receptor 1 (Homo sapiens), entry `CC(=O)N(C(=O)/C=C/c1cccc(Cl)c1)[C@@H](Cc1ccc(F)cc1)C(=O)N[C@@H](Cc1ccc(NC(=N)N)cc1)C(=O)N[C@@H](CC(C)C)C(=O)N[C@@H](CCCN=C(N)N)C(N)=O` . Fill in?
41

Under Proteinase-activated receptor 1 (Homo sapiens): IC50 value of `CC#Cc1ccccc1C(=O)N(C(C)=O)[C@@H](Cc1ccc(F)cc1)C(=O)N[C@@H](Cc1ccc(NC(=N)N)cc1)C(=O)N[C@@H](CC(C)C)C(=O)N[C@@H](CCCN=C(N)N)C(N)=O` ?
23

# value lookup — system Proteinase-activated receptor 1 (Homo sapiens), readout IC50, item `CC(=O)N(C(=O)/C=C/c1ccccc1)[C@@H](Cc1ccc(F)cc1)C(=O)N[C@@H](CCN=C(N)N)C(=O)N[C@@H](CC(C)C)C(=O)N[C@@H](CCCN=C(N)N)C(N)=O`
28

Which measured IC50 belongs to `CC(=O)N(C(=O)/C=C/c1ccccc1)[C@@H](Cc1ccc(F)cc1)C(=O)N[C@@H](Cc1ccc(NC(=N)N)cc1)C(=O)N[C@@H](CC(C)C)C(=O)N[C@@H](CCCN=C(N)N)C(N)=O` , tested on Proteinase-activated receptor 1 (Homo sapiens)?
7.8

Which measured IC50 belongs to `CC(=O)N(c1cccc(Cl)c1)[C@@H](Cc1ccc(F)cc1)C(=O)N[C@@H](Cc1ccc(NC(=N)N)cc1)C(=O)N[C@@H](CC(C)C)C(=O)N[C@@H](CCCN=C(N)N)C(N)=O` , tested on Proteinase-activated receptor 1 (Homo sapiens)?
110

Entry `C=CC(=O)c1ccsc1N(C(C)=O)[C@@H](Cc1ccc(F)cc1)C(=O)N[C@@H](Cc1ccc(NC(=N)N)cc1)C(=O)N[C@@H](CC(C)C)C(=O)N[C@@H](CCCN=C(N)N)C(N)=O` , system Proteinase-activated receptor 1 (Homo sapiens): what IC50 was measured?
23

Recall the recorded IC50 for `CC(C)C[C@H](NC(=O)[C@@H](N)CCCN=C(N)N)C(=O)N[C@@H](CCCN)C(=O)N[C@@H](Cc1ccc(F)cc1)C(=O)NC(=O)/C=C/c1ccccc1` with Proteinase-activated receptor 1 (Homo sapiens) and state it.
Sequence (P25116 whole entry): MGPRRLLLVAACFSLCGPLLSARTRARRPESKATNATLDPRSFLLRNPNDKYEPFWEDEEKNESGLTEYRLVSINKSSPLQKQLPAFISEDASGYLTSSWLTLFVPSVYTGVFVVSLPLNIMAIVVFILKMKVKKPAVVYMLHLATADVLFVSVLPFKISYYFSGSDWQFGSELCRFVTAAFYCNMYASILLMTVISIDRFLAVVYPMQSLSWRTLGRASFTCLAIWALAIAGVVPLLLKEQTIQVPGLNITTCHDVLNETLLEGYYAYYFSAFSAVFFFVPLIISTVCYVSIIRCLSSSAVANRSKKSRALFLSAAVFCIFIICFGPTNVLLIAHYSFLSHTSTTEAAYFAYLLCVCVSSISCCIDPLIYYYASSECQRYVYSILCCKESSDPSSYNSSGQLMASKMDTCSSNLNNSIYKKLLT
170

What reported IC50 corresponds to `CC(=O)N(C(=O)/C=C/c1ccccc1)[C@@H](Cc1ccc(F)cc1)C(=O)N[C@@H](CCCN=C(N(C)C)N(C)C)C(=O)N[C@@H](CC(C)C)C(=O)N[C@@H](CCCN=C(N)N)C(N)=O` on Proteinase-activated receptor 1 (Homo sapiens)?
320

Request - read-out IC50 | tested on Proteinase-activated receptor 1 (Homo sapiens) | compound `CC(=O)N(C(=O)/C=C/c1ccccc1)[C@@H](Cc1ccc(F)cc1)C(=O)N[C@@H](Cc1ccc(NC(=N)N)cc1)C(=O)N[C@@H](CC(C)C)C(=O)N[C@@H](CCCN)C(=O)CC(N)=O`
44

Give recorded IC50 with Proteinase-activated receptor 1 (Homo sapiens) for the following compound: CCC(=O)c1cccc(N(C(C)=O)[C@@H](Cc2ccc(F)cc2)C(=O)N[C@@H](Cc2ccc(NC(=N)N)cc2)C(=O)N[C@@H](CC(C)C)C(=O)N[C@@H](CCCN=C(N)N)C(=O)N[C@@H](CCCN=C(N)N)C(N)=O)c1 (Ac-[X9][Phe(4-guanidino)]LRR-NH2)
9
